test system: CP260; experiment: qHTS profiling for inhibitors of Plasmodium falciparum proliferation (AID 504749); further: nearly all actives have a fitted effect of over 60% in size; settings: P. falciparum in erythrocytes, SYBR Green DNA, 72 h; series mostly up to 28.7 µM
Records with an inconclusive call do not appear. Activity calls are given as the source filed them. The call rests on the fitted dose curve; in most records, active means well fitted inhibition curve with a large enough effect; inconclusive means small, poorly fitted or top-dose-only effect; inactive means flat fitted curve, though single readings scatter. Peptide text beside a SMILES is read from it.
Log the outcome using a class from 1 = active, 0 = inactive

MOLECULE	SUBJECT_OF_TEST	LABEL
CCCCCCC(O)C/C=C/CCCCCCCC(=O)O (stereo unspecified)	CP260	0
CC[N+](C)(C)Cc1ccccc1Br	CP260	0
CCC(=O)NCCC1CCc2ccc3c(c21)CCO3 (stereo unspecified)	CP260	0
Oc1cc(O)c2c(c1)OC(c1ccc(O)c(O)c1)C(O)C2 (stereo unspecified)	CP260	0
O=C(COc1ccc(Cl)cc1)OCCNC12CC3CC(CC(C3)C1)C2	CP260	0
Nc1c(N=Nc2ccc(-c3ccc(N=Nc4cc(S(=O)(=O)O)c5ccccc5c4N)cc3)cc2)cc(S(=O)(=O)O)c2ccccc12	CP260	0
CC(C)=O	CP260	0
O=S(=O)(O)O	CP260	0

[Q] Per the assay record, what outcome was assigned to CC[C@@]1(O)C(=O)OCc2c1cc1n(c2=O)Cc2cc3c([N+](=O)[O-])cccc3nc2-1 ?
[A] 1

[Q] Queued: Cc1ccccc1
[A] 0

[Q] Field entry: Cc1c(C)c2c(c(C)c1O)CC[C@@](C)(CCC[C@H](C)CCC[C@H](C)CCCC(C)C)O2
[A] 0

[Q] Ok, now CCCC(=O)O[C@]1(C(=O)CCl)[C@H](C)C[C@@H]2[C@H]3CCC4=CC(=O)C=C[C@]4(C)[C@@]3(F)C(=O)C[C@@]21C
[A] 1

[Q] Thanks! And CC(=O)Oc1c(C)cc(OCC(O)CNC(C)C)c(C)c1C (stereo unspecified) ?
[A] 0

[Q] Would you kindly repeat that for CO[C@H]1C[C@@H]2CC[C@@H](C)[C@@](O)(O2)C(=O)C(=O)N2CCCC[C@H]2C(=O)O[C@H]([C@H](C)C[C@@H]2CC[C@@H](OCCO)[C@H](OC)C2)CC(=O)[C@H](C)/C=C(\C)[C@@H](O)[C@@H](OC)C(=O)[C@H](C)C[C@H](C)/C=C/C=C/C=C/1C ?
[A] 1

[Q] How about CC(C)(C)C(=O)OCOC(=O)[C@@H]1N2C(=O)[C@@H](N=CN3CCCCCC3)[C@H]2SC1(C)C ?
[A] 0

[Q] Same read-out for COC(=O)C1=C(C#N)NC(C)=C(C(=O)OC(C)C)C1c1cccc([N+](=O)[O-])c1 (stereo unspecified) ?
[A] 1

[Q] Repeat for the following molecule: CC1=CCC(C(C)(C)O)CC1 (stereo unspecified)
[A] 0

[Q] Also check CCCC(=O)Nc1ncnc2c1ncn2C1OC2COP(=O)(O)OC2C1OC(=O)CCC (stereo unspecified)
[A] 0

[Q] Next: Nc1ncnc2c1ncn2[C@@H]1O[C@H](COP(=O)(O)OP(=O)(O)OP(=O)(O)O)[C@@H](O)[C@H]1O
[A] 0

[Q] Again, but for CC(=O)N[C@@H](CC(=O)O)C(=O)N[C@@H](CCC(=O)O)C(=O)O (Ac-Asp-Glu-OH)
[A] 0

Attribution: PubChem BioAssay (NCATS)
